- tested.system: Cannabinoid receptor 1 (Rattus norvegicus)
- protocol.description: Binding affinity towards CB1 receptor in rat brain membrane by displacement of [3H]SR-141,716A relative to HU-210
- Format: cell membranes
The entries below are paired with their reported Krel.

The following molecules have reported results that may help.
- molecule: "CCCCC/C=C\\C/C=C\\CCCCCCCCOC(CO)CO"
  Krel: 5620
- molecule: "CCCCCCCC/C=C\\CCCCCCCCOC(CO)CO"
  Krel: 6400
- molecule: "CC(C)=CCC/C(C)=C/CC/C(C)=C/COC(CO)CO"
  Krel: "> 12500"
- molecule: "CCCCCCCCCCCCCCCCOCC(O)CO (stereo not given)"
  Krel: "> 12500"
- molecule: "CCCCCCCC/C=C\\CCCCCCCCCCCCOC(CO)CO"
  Krel: "> 12500"

// moving on: another record for Krel
Record request: Krel value, item CCCCCCCC[C@@H]1C[C@@H]1CCCCCCCCCCCCOC(CO)CO (single isomer, unassigned)
> 125000

----------
- tested.system: Cannabinoid receptor 1 (Rattus norvegicus)
- protocol.description: Binding affinity towards cannabinoid CB1 receptor in rat brain membrane by displacement of [3H]SR-141,716A
- Assay type: cell membranes
Listing of entries alongside the reported Ki.

Answered cases to consult:
- compound: "CCCCCCCC[C@@H]1C[C@@H]1CCCCCCCCOC(CO)CO"
  tested.system: "Cannabinoid receptor 1 (Rattus norvegicus)"
  Ki: "> 50 µM"
- compound: "CC(C)=CCC/C(C)=C/COC(CO)CO"
  tested.system: "Cannabinoid receptor 1 (Rattus norvegicus)"
  Ki: "> 50 µM"
- compound: "CCCCCCCC[C@@H]1C[C@@H]1CCCCCCCCCCCCOC(CO)CO (single isomer, unassigned)"
  tested.system: "Cannabinoid receptor 1 (Rattus norvegicus)"
  Ki: "> 50 µM"
- compound: "CCCCC/C=C\\C/C=C\\CCCCCCCCOC(CO)CO"
  tested.system: "Cannabinoid receptor 1 (Rattus norvegicus)"
  Ki: "22.5 µM"
- compound: "CCCCC/C=C\\C/C=C\\C/C=C\\C/C=C\\CCCCOCC(O)CO (stereo in doubt; 5a)"
  tested.system: "Cannabinoid receptor 1 (Rattus norvegicus)"
  Ki: "5 µM"
- compound: "CCCCCCCCCCCCCCCCOCC(O)CO (configuration not stated)"
  tested.system: "Cannabinoid receptor 1 (Rattus norvegicus)"
  Ki: "> 50 µM"

Any idea what its Ki is? The compound is CCCCC/C=C\C/C=C\C/C=C\CCCCCOC(CO)CO
13.9 µM

Given the entry CCCCCCCC/C=C\CCCCCCCCOC(CO)CO , report its measured Ki.
25.6 µM

Given the entry CC(C)=CCC/C(C)=C/CC/C(C)=C/COC(CO)CO , report its measured Ki.
> 50 µM

Look at this compound and give its reported Ki. CCCCCC[C@@H]1C[C@@H]1C#CCCCCCCCCOC(CO)CO
> 50 µM

Quick one: Ki for CCCCCCCCCCCCCCCCOC(CO)CO ?
> 50 µM

What value of Ki has been reported for the following compound? CC(C)=CCC/C(C)=C/COCC(O)CO (configuration not stated)
> 50 µM

----------
- tested.system: Cannabinoid receptor 1 (Rattus norvegicus, UniProt P20272)
- Sequence (P20272 whole entry): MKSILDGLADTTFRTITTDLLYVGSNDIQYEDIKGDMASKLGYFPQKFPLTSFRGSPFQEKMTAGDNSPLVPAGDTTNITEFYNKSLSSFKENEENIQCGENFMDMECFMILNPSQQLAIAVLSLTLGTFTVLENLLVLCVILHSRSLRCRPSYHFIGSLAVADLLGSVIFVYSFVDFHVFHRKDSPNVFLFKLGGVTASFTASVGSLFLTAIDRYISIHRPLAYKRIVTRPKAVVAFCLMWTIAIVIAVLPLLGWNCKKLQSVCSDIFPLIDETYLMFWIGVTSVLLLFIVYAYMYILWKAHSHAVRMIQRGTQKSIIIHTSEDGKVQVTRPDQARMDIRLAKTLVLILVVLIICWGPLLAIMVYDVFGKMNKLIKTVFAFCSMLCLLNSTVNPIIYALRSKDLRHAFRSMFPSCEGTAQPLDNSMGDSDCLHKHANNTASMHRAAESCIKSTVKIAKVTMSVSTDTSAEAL
- protocol.description: Binding affinity towards cannabinoid CB1 receptor in rat brain membrane by displacement of [3H]SR-141,716A at 50 uM
- Type: cell membranes
quantity.name: Ki

- smiles.notation: "CCCCCC/C=C/C#CCCCCCCCCOC(CO)CO"
  Ki: "> 50 µM"

Let's switch to this molecule now.
Write down the reported Ki of CCCCCCCC/C=C\CCCCCCCCCCCCOC(CO)CO , test system: Cannabinoid receptor 1 (Rattus norvegicus, UniProt P20272).
> 50 µM

----------
Each entry below lists one item and its recorded Krel value.
- tested.system: Cannabinoid receptor 1 (Rattus norvegicus)
- protocol.description: Binding affinity towards CB1 receptor in rat brain membrane by displacement of [3H]SR-141,716A relative to HU-210
- Format: cell membranes

- compound: "CCCCCC[C@@H]1C[C@@H]1C#CCCCCCCCCOC(CO)CO"
  measurement: "> 125000"
- compound: "CCCCCCCCCCCCCCCCOC(CO)CO"
  measurement: "> 12500"
- compound: "CCCCCCCC[C@@H]1C[C@@H]1CCCCCCCCOC(CO)CO"
  measurement: "> 125000"
- compound: "CCCCC/C=C\\C/C=C\\C/C=C\\C/C=C\\CCCCOCC(O)CO (stereo in doubt; 5a)"
  measurement: 1250
- compound: "CC(C)=CCC/C(C)=C/COCC(O)CO (centres undefined)"
  measurement: "> 12500"

Need Krel, item CC(C)=CCC/C(C)=C/COC(CO)CO
> 12500

Please give the measured Krel for this compound: CCCCC/C=C\C/C=C\C/C=C\CCCCCOC(CO)CO
3480

Requested read-out: Krel. Entry: CCCCCC/C=C/C#CCCCCCCCCOC(CO)CO
> 125000

Can you look up the measured Krel of CCCCC/C=C\C/C=C\C/C=C\C/C=C\CCCCOCC(O)CO (stereo in doubt; 5b) for me?
625

Attribution: ChEMBL document CHEMBL1136419
